From: the supplement of paper PMC11451515

Test system: NOMO1
Assay: cell viability relative to DMSO control; higher = less cytotoxic
Settings: RPMI 5 mM glucose + 10% FBS; 48 h; 0.19 µM
quantity measured: cell viability (%)
Please respond with the number in % and leave the unit unwritten.

* N[S+](=O)([O-])OC[C@@H]1C[C@@H](n2ccc3c(N[C@H]4CCc5ccccc54)ncnc32)C[C@@H]1O | 92.6

Ask: Fill in the blank: the reported cell viability of C=CCc1ccc(O)c(-c2ccc(O)c(CC=C)c2)c1 is ____.
Result: 112

Ask: Can you check CC(C)(C)[C@H](NC(=O)c1ccc(N)c(Cl)c1)C(=O)N1CCC[C@H]1C(=O)N[C@H](C#N)CC(=O)O next?
Result: 126

Ask: Same again, this time with COC1=CC=C(C=C1O)C/2=C/C(=O)C3=C(O2)C=C(O[C@@H]4O[C@H](CO[C@@H]5O[C@@H](C)[C@H](O)[C@@H](O)[C@H]5O)[C@@H](O)[C@H](O)[C@H]4O)C=C3O
Result: 114

* * *

Test system: P12-Ichikawa
Experiment: cell viability relative to DMSO control; higher = less cytotoxic
Details: HPLM + 10% dialyzed FBS; 48 h; 0.0211 µM
quantity measured: cell viability (%)
Report the value in % with no unit label.

- COc1cc(/C=C/C(=O)O)ccc1O: 104
- N#C[C@H](O[C@@H]1O[C@H](CO[C@@H]2O[C@H](CO)[C@@H](O)[C@H](O)[C@H]2O)[C@@H](O)[C@H](O)[C@H]1O)c1ccccc1: 102

Next item in the queue.
Ask: Quick one: cell viability for OCc1ccc(-c2ccc(-c3ccc(CO)s3)o2)s1 ?
Result: 116

* * *

Test system: P12-Ichikawa
Assay: cell viability relative to DMSO control; higher = less cytotoxic
Settings: RPMI 5 mM glucose + 10% dialyzed FBS; 48 h; 46.1 µM
quantity measured: cell viability (%)
Number in %, nothing else.

Before answering, review these 5 worked examples.
- CO/N=C(\C(=O)N[C@@H]1C(=O)N2C(C(=O)OCOC(=O)C(C)(C)C)=C(/C=C\c3scnc3C)CS[C@H]12)c1csc(N)n1: 57.2
- Cc1noc(-c2ccc(CSCCC(=O)O)cc2)c1NC(=O)OC(C)c1ccccc1Cl (centres undefined): 79.5
- C[C@@H](O)[C@@H]1NC(=O)[C@H](CCCCN)NC(=O)[C@@H](Cc2c[nH]c3ccccc23)NC(=O)[C@H](Cc2ccccc2)NC(=O)[C@@H](NC(=O)[C@H](N)Cc2ccccc2)CSSC[C@@H](C(=O)N[C@H](CO)[C@@H](C)O)NC1=O: 79.7
- NC(=O)c1ncn([C@@H]2O[C@H](CO)[C@@H](O)[C@H]2O)c1O: 104
- COc1cc(/C=C/C(=O)O)ccc1O: 99

Ask: Need cell viability of NC/1=N/C(=O)N(/C=N1)[C@@H]2O[C@H](CO)[C@@H](O)[C@H]2O , thanks.
Result: 26.8

Ask: Field entry: CC(C)Cc1ccc(C(C)C(=O)O)cc1 (centres undefined)
Result: 95.6

Ask: Would you kindly repeat that for CCOC(=O)\C1=C\[C@@H](OC(CC)CC)[C@H](NC(C)=O)[C@@H](N)C1 ?
Result: 99.3

Ask: Ok, now Cc1nc(Nc2n[nH]c3c2CN(C(=O)N[C@H](CN(C)C)c2ccccc2)C3(C)C)c2sccc2n1
Result: 15.8

* * *

Tested on: SEM cells
Test: cell viability relative to DMSO control; higher = less cytotoxic
Conditions: RPMI 5 mM glucose + 10% FBS; 48 h; 15.4 µM
# maps each entry to its cell viability
Your answer is read as %, so omit the unit and give the number.

Some solved cases for reference:
* CC(C)Cc1ccc(C(C)C(=O)O)cc1 (stereo not given) | 77.2
* c1ccc(-c2oc3ncnc(NC[C@@H]4CCCO4)c3c2-c2ccccc2)cc1 | 99.9
* NC(=O)NO | 7.56
* CCN(c1ccccc1)c1cc(NC)[n+](C)c(C)n1 | 95.3
* CCOC(=O)/C=C/[C@H](C[C@@H]1CCNC1=O)NC(=O)[C@@H](CC(=O)[C@@H](NC(=O)c1cc(C)on1)C(C)C)Cc1ccc(F)cc1 | 97.3

Ask: Param item = OC[C@H]1O[C@@H](Oc2cc(O)cc(/C=C/c3ccc(O)cc3)c2)[C@H](O)[C@@H](O)[C@@H]1O ; retrieve measured cell viability.
Result: 119

Ask: // next record C[C@H]1COC/2=C1/C(=O)C(=O)C3=C4CCCC(C)(C)C4=CC=C23
Result: 38.1

Ask: Note, next up: NC(=O)Nc1cc(-c2cccc(F)c2)sc1C(=O)N[C@H]1CCCNC1
Result: 11.3

Ask: Try the compound NC(=O)OCC(COC(N)=O)c1ccccc1
Result: 117

Ask: Again, but for CCNC(=O)Nc1ccc2ncc(Nc3ccc(C)cc3)nc2n1
Result: 59.3

* * *

cell viability overview
Tested on: SEM cells
Assay: cell viability relative to DMSO control; higher = less cytotoxic
Conditions: HPLM + 10% dialyzed FBS; 48 h; 0.0632 µM
Your answer should be a plain number; it is taken to be in %.

Consider the following illustrative entries.
- Cn1cc(C[C@@H](N)C(=O)O)c2ccccc21: 112
- Nc1ncnc2c1c(-c1cccc(OCc3ccccc3)c1)cn2C1CC(CN2CCCC2)C1 (stereo not drawn): 113

Next compound, please.
Ask: Find cell viability (SEM cells) for the entry CNC(=O)CN1CCC(Oc2cc3c(Nc4cccc(Cl)c4F)ncnc3cc2OC)CC1
Result: 112

* * *

Test system: NOMO1
Experiment: cell viability relative to DMSO control; higher = less cytotoxic
Conditions: RPMI 5 mM glucose + 10% dialyzed FBS; 48 h; 0.0632 µM
quantity measured: cell viability (%)
Write the number in % without appending the unit.

Examples with their reported cell viability follow.
* OC[C@H]1O[C@@H]2[C@@H](OC\3=N\C(=N)\C=C/[N@@]23)[C@@H]1O | 118
* Cc1onc(-c2ccccc2)c1C(=O)N[C@@H]1C(=O)N2[C@@H]1SC(C)(C)[C@@H]2C(=O)[O-].[Na+] | 101
* OC1=CC2=C(C(=C1)O)C(=O)\C(=C(/O2)C3=CC(=C(O)C=C3)O)O | 104
* O=C(/C=C/c1ccc(O)cc1)c1ccc(O)cc1O | 107
* CNC(=O)[C@H](CC/1=C/N=C\2/C=C\C\C=C12)NC(=O)[C@H](CC(C)C)CC(=O)NO | 120

Ask: Provide the documented cell viability with NOMO1 as the system for COc1cc(C(=O)NS(=O)(=O)c2ccccc2C)ccc1Cc1cn(C)c2ccc(NC(=O)OC3CCCC3)cc12
Result: 88.8

Ask: Please answer likewise for N#C/C(C(=O)c1ccc(Cl)cc1Cl)=C1/NC(=O)c2ccc(Cl)cc2N1
Result: 118

Ask: How about COc1cc(O)c2c(c1)C(=O)c1cc(C)cc(O)c1C2=O ?
Result: 120

* * *

Tested on: SEM cells
Assay: cell viability relative to DMSO control; higher = less cytotoxic
Conditions: RPMI 5 mM glucose + 10% FBS; 48 h; 0.000781 µM
Some compounds, each annotated with its measured cell viability.
// return numeric value only (unit: %, not printed)

Use these answered entries as a reference point.
• OCCn1cc(-c2cnc3nnn(Cc4ccc5ncccc5c4)c3n2)cn1 = 122
• CO/N=C(/C(=O)N[C@@H]1C(=O)N2C(C(=O)O)=C(CSC(=O)c3ccco3)CS[C@H]12)c1csc(N)n1 = 77.5
• CCN1CCCC1CNC(=O)c1cc([S+](N)(=O)[O-])ccc1OC (centres undefined) = 96.8

Now consider the entry below.
Ask: Give the measured cell viability of N[S+](=O)([O-])OC[C@@H]1C[C@@H](n2ccc3c(N[C@H]4CCc5ccccc54)ncnc32)C[C@@H]1O .
Result: 101

* * *

Some compounds, each annotated with its measured cell viability.
Tested on: P12-Ichikawa
Test: cell viability relative to DMSO control; higher = less cytotoxic
Settings: HPLM + 10% dialyzed FBS; 48 h; 0.0211 µM
Kindly provide the numeric value in % only, without the unit symbol.

Worked cases, answers included:
* C1CCN2C[C@H]3C[C@H](\C=C/4CCCN[C@@H]34)[C@H]2C1 | 103
* CCN1CCCC1CNC(=O)c1cc([S+](N)(=O)[O-])ccc1OC (stereo not given) | 108
* OC[C@H]1O[C@@H]2[C@@H](OC\3=N\C(=N)\C=C/[N@@]23)[C@@H]1O | 105
* NC(=O)NO | 100
* C[C@@]1(C(=O)Nc2ccc(F)nc2)CCCN1c1nc(Nc2cc(C3CC3)[nH]n2)c2cccn2n1 | 112
* CC(C)(C)[C@H](NC(=O)c1ccc(N)c(Cl)c1)C(=O)N1CCC[C@H]1C(=O)N[C@H](C#N)CC(=O)O | 127
* CCN1CCN(C(=O)Cc2ccc(Nc3ncc(F)c(Nc4ccc(C(=O)Nc5ccccc5Cl)cc4)n3)cc2)CC1 | 108
* CN(C)CCN1C(=O)c2cccc3cc(N)cc(c23)C1=O | 109

Ask: Which cell viability value is on record for CC(C)OC1=CC=C2C(=C1)O\C=C(/C2=O)C3=CC=CC=C3 ?
Result: 128

Ask: Now give it for Cn1cc(C[C@@H](N)C(=O)O)c2ccccc21 too.
Result: 104
